Test system: MCF7
Assay: Cytotoxicity against human MCF7 cells assessed as growth inhibition after 72 hrs by neutral red assay
Type: functional, cell-based
Settings: MCF7, 72 h
Measured pIC50 of individual entries
Worth noting: pIC50 values are minus log10 of concentrations stated in mol/L.

>>> print(df.to_string())
                                   compound  test_system  property_name  quantitative_readout
0  CC1(C)C(=O)CC[C@]2(C)[C@H]3C[C@@H](O)[C@@H]4C=CC(=O)[C@@]4(C)[C@]3(C)CC[C@@H]12         MCF7          pIC50                  5.33
1  COc1c(-c2ccc(O)cc2)oc2cc(O)cc(O)c2c1=O [ISOKAEMPFERIDE]         MCF7          pIC50                  4.26

Field: next compound
Exam item: Answer with reported pIC50 of CO[C@@H]1CC(=O)[C@]2(C)[C@@H]1[C@H](O)C[C@@H]1[C@@]3(C)CC[C@H](O)C(C)(C)[C@@H]3CC[C@]12C
Marked response: 4.10

* * *

Measured IC50 of individual entries
Tested on: MCF7
Test: Cytotoxicity against human MCF7 cells assessed as growth inhibition after 72 hrs by neutral red assay
Format: functional, cell-based
Details: MCF7, 72 h

>>> df
                                   molecule    result
0  C/C(=C\CC[C@](C)(O)[C@@H]1[C@H]2CC[C@@H]3[C@@]4(C)CCC(=O)C(C)(C)[C@@H]4CC[C@@]3(C)[C@]2(C)C[C@@H]1O)C(=O)O  > 100 µM

Exam item: Answer with reported IC50 of CC1(C)CC[C@]2(C(=O)O)CC[C@]3(C)C(=CC[C@@H]4[C@@]5(C)C[C@@H](O)[C@H](O)C(C)(C)[C@@H]5CC[C@]43C)[C@@H]2C1 [MASLINIC ACID]
Marked response: > 100 µM

Exam item: Answer with reported IC50 of CC1(C)[C@@H](O)CC[C@]2(C)[C@H]3C[C@@H](O)[C@@H]4[C@H](O)CC(=O)[C@@]4(C)[C@]3(C)CC[C@@H]12
Marked response: > 100 µM
